Data origin: BigSolDB 2.1

conditions: in ethyl acetate, 298.15 K

{"molecular string": "Sc1nc2ccccc2[nH]1", "solubility (mole fraction)": 0.00366}

---

details: in cyclohexane, 303.15 K

{"molecular string": "Sc1nc2ccccc2[nH]1", "solubility (mole fraction)": "1.49e-05"}

---

conditions: in acetone, 303.15 K
observation type: solubility (mole fraction)

{"molecular string": "Sc1nc2ccccc2[nH]1", "observed": 0.016}

---

conditions: in acetone, 298.15 K
observation type: solubility (mole fraction)

{"molecular string": "Sc1nc2ccccc2[nH]1", "observed": 0.0152}

---

conditions: in n-butanol, 303.15 K

{"molecular string": "Sc1nc2ccccc2[nH]1", "solubility (mole fraction)": 0.00941}

---

settings: in acetone, 313.15 K

{"molecular string": "Sc1nc2ccccc2[nH]1", "solubility (mole fraction)": 0.0179}

---

conditions: in 1,4-dioxane, 283.15 K

{"molecular string": "Sc1nc2ccccc2[nH]1", "solubility (mole fraction)": 0.0153}

---

settings: in acetonitrile, 313.15 K
observation type: solubility (mole fraction)

{"molecular string": "Sc1nc2ccccc2[nH]1", "observation type": "solubility (mole fraction)", "observed": 0.00228}

---

conditions: in toluene, 283.15 K

{"molecular string": "Sc1nc2ccccc2[nH]1", "solubility (mole fraction)": "2.73e-05"}

---

details: in 2-butanone, 318.15 K
observation type: solubility (mole fraction)

{"molecular string": "Sc1nc2ccccc2[nH]1", "observed": 0.0172}

---

details: in 1,4-dioxane, 293.15 K

{"molecular string": "Sc1nc2ccccc2[nH]1", "solubility (mole fraction)": 0.0181}

---

conditions: in 1,4-dioxane, 308.15 K

{"molecular string": "Sc1nc2ccccc2[nH]1", "solubility (mole fraction)": 0.0227}

---

conditions: in toluene, 318.15 K
observation type: solubility (mole fraction)

{"molecular string": "Sc1nc2ccccc2[nH]1", "observed": 0.000104}

---

settings: in n-butanol, 288.15 K

{"molecular string": "Sc1nc2ccccc2[nH]1", "solubility (mole fraction)": 0.0058}

---

conditions: in 2-butanone, 303.15 K

{"molecular string": "Sc1nc2ccccc2[nH]1", "solubility (mole fraction)": 0.0141}

---

settings: in 1,4-dioxane, 288.15 K

{"molecular string": "Sc1nc2ccccc2[nH]1", "solubility (mole fraction)": 0.0166}

---

settings: in n-propanol, 303.15 K

{"molecular string": "Sc1nc2ccccc2[nH]1", "solubility (mole fraction)": 0.00999}

---

details: in 2-butanone, 288.15 K

{"molecular string": "Sc1nc2ccccc2[nH]1", "solubility (mole fraction)": 0.0117}
